The reader will find reported pIC50 values listed item by item below.
biological target: human α1H T-type channels (Homo sapiens); construct: expressed in transfected cells; host or cells: HEK 293; test: T-type calcium channel block, whole cell patch clamp in HEK cells (α1H); assay type: cell-based; conditions: HEK cells, patch clamp, mainly non-inactivated protocol; values above 10 μM shown as 10 μM; read-out: T-type Calcium Channel Block α1H IC50
Sequence (O95180 whole entry): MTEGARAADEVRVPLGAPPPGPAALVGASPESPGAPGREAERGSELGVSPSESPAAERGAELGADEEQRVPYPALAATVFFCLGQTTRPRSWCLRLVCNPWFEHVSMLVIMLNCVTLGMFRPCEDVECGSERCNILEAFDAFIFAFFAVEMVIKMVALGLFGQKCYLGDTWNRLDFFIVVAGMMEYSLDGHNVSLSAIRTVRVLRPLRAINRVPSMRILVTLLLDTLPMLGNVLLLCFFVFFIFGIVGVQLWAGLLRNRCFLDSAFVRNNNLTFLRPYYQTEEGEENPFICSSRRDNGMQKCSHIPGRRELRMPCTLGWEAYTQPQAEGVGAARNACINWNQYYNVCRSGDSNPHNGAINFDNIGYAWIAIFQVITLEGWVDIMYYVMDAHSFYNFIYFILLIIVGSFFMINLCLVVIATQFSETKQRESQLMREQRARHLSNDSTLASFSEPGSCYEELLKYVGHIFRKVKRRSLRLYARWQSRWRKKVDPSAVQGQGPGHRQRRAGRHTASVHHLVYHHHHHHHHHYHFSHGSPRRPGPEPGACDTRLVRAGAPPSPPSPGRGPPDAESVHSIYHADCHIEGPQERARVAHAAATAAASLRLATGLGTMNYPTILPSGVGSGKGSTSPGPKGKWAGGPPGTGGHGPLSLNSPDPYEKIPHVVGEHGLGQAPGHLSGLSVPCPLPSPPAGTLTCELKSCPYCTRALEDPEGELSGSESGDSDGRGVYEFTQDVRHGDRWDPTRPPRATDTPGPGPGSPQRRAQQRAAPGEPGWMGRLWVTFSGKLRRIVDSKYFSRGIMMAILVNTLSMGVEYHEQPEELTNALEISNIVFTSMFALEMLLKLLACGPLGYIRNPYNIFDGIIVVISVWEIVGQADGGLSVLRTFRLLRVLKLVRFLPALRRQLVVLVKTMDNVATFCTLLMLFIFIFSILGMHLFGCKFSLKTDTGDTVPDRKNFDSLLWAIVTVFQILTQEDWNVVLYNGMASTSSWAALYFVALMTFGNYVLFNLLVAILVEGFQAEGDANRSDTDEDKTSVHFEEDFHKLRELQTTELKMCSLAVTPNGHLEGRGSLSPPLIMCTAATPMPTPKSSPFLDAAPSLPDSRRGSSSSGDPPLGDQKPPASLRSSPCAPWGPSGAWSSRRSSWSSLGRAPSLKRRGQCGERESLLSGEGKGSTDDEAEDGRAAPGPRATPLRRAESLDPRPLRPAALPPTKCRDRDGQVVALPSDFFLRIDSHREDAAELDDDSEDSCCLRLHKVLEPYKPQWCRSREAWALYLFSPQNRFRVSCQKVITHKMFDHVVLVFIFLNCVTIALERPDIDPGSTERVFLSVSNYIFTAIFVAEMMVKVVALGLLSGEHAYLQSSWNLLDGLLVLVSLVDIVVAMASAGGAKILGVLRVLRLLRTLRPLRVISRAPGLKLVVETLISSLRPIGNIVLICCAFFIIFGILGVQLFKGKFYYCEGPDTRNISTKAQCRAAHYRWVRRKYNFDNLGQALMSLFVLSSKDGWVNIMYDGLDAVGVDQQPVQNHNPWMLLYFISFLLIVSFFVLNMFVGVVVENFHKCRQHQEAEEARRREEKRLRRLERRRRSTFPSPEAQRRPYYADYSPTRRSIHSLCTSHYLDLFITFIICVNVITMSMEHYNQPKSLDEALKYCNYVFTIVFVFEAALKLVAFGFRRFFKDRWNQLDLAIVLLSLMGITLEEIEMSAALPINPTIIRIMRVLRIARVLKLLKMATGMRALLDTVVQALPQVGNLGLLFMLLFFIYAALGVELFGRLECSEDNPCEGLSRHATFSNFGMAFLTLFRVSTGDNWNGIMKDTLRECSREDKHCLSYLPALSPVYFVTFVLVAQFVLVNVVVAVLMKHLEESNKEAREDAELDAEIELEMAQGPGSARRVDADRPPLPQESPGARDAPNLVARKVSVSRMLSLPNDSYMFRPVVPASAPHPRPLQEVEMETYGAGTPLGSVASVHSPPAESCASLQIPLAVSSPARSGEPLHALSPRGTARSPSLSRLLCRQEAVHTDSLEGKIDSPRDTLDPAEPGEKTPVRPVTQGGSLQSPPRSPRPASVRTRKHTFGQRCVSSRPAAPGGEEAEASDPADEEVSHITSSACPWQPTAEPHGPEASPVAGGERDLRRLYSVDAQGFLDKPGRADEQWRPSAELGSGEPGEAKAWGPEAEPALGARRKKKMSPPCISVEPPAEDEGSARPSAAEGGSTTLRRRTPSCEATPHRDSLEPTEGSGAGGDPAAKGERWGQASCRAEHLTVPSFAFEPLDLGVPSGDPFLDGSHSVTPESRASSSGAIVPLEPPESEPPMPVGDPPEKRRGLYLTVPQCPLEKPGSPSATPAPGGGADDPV
Formally, pIC50 is defined as -log10 of the concentration c, with c in mol/L.

Sample records with pIC50:
O=C(NCC1CCN(CCNS(=O)(=O)C2CCC2)CC1)c1cc(F)cc(C(F)(F)F)c1	6.41
CC(C)(C)NC(=O)CN1CCC(CNC(=O)Cc2cc(C(F)(F)F)cc(C(F)(F)F)c2)CC1	5.87
CC(C)(C)C(=O)NCCN1CCC(CNC(=O)c2cc(F)cc(C(F)(F)F)c2)CC1	6.09
CC(C)(C)C(=O)NCCN1CCC(CNC(=O)c2cc(Br)cc(C(F)(F)F)c2)CC1	6.52
O=C(CC1CCN(CC2(NS(=O)(=O)C3CC3)CCCC2)CC1)Nc1cc(C(F)(F)F)cc(C(F)(F)F)c1	7.10
O=C(CCC(F)(F)F)NCCN1CCC(CNC(=O)c2cccc(Cl)c2)CC1	5.83

Please give the documented pIC50 of "O=C(NCC1CCN(CCNS(=O)(=O)C2CC2)CC1)c1cc(Cl)sc1Cl"
5.62

Specify reported pIC50 for the compound shown: CC(C)(C)C(O)CN1CCC(CC(=O)Nc2cc(F)cc(C(F)(F)F)c2)CC1 (stereo not shown)
6.64

Please list pIC50 recorded for the compound "Cc1cc(F)cc(C(=O)NCC2CCN(CC(=O)N3CCC[C@H]3C(F)(F)F)CC2)c1"
6.85

###

molecular target: human α1G T-type channels (Homo sapiens, UniProt O43497); construct: expressed in transfected cells; host or cells: HEK 293; assay: T-type calcium channel block, whole cell patch clamp in HEK cells (α1G); format: cell-based; conditions: HEK cells, patch clamp, mainly non-inactivated protocol; values above 10 μM shown as 10 μM, below 0.30 μM shown as 0.30 μM; read-out: T-type Calcium Channel Block α1G IC50
Sequence (O43497 whole entry): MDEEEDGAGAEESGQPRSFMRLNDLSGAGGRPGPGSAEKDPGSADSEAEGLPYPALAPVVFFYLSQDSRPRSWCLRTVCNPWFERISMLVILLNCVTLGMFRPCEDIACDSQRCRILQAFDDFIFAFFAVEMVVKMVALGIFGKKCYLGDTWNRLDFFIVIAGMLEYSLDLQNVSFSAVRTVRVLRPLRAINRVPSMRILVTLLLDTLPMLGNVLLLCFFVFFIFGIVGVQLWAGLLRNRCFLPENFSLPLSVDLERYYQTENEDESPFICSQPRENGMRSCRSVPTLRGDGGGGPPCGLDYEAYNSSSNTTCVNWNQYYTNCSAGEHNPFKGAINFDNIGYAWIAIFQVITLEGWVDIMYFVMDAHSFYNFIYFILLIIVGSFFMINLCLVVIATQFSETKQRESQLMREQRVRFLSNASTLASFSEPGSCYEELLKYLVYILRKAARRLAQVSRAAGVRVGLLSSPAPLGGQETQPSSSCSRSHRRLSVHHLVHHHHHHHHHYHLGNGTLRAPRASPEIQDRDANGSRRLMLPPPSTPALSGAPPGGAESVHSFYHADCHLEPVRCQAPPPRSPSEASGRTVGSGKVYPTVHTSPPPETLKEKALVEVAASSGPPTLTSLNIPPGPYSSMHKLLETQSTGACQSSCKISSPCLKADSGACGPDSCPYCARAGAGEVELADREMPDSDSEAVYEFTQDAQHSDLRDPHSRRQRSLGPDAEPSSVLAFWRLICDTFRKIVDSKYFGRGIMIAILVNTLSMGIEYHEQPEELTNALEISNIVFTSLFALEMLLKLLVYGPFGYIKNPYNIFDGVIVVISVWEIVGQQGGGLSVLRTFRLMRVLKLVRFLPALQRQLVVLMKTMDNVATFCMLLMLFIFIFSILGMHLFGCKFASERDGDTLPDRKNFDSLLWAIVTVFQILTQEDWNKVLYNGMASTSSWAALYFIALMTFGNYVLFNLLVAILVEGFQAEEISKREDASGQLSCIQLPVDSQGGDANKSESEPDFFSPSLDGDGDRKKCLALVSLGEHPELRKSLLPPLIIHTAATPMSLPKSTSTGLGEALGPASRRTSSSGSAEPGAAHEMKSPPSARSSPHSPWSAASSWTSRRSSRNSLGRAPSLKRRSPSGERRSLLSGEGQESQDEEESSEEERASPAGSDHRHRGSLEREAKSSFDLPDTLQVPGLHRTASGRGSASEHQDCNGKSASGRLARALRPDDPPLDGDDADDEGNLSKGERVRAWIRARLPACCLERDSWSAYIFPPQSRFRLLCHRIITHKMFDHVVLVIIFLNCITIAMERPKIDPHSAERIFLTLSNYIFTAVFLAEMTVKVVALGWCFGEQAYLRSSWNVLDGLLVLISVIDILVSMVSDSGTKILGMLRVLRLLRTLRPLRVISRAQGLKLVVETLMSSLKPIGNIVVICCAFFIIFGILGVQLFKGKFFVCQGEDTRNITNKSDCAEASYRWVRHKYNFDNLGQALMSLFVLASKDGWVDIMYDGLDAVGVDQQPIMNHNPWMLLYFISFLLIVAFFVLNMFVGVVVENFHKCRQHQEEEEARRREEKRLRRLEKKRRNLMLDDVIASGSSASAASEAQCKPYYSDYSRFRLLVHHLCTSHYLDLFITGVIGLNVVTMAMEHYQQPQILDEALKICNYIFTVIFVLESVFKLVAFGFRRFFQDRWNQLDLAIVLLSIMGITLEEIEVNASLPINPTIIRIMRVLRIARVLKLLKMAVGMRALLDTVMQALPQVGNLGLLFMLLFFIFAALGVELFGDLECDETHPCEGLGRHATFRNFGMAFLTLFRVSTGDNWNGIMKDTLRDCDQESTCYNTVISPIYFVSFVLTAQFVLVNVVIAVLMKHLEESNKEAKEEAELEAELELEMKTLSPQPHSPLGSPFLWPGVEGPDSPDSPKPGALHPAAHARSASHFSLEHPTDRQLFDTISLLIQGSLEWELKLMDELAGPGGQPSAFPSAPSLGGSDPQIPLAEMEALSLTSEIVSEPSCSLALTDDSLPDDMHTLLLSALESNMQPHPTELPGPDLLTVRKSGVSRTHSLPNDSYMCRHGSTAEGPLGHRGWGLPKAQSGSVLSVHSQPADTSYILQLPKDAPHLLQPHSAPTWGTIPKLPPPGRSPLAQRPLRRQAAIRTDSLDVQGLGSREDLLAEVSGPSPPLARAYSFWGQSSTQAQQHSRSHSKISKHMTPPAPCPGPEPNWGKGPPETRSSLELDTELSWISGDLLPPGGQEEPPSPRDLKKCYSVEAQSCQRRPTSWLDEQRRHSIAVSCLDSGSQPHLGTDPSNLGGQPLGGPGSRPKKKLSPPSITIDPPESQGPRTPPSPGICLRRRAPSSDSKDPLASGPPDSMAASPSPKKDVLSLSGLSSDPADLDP
experimental_readout: pIC50
Please keep in mind that pIC50 is minus log10 of the molar concentration; only the number is needed.

Reference set (4 entries):
O=C(NCC1CCN(CCNC(=O)C2(C(F)(F)F)CC2)CC1)c1cccc(C(F)(F)F)c1	6.17
Cc1cc(F)cc(C(=O)NCC2CCN(CCNC(=O)C(C)(C)C(F)(F)F)CC2)c1	6.43
O=C(NCC1CCN(C(=O)CNC2CCCCC2)CC1)c1cc(F)cc(C(F)(F)F)c1	6.51
O=C(NCC1CCN(C[C@@H]2CCCN2S(=O)(=O)CC2CC2)CC1)c1cc(F)cc(C(F)(F)F)c1	5.39

Look up pIC50 of "CCCNC(=O)CN1CCC(CNC(=O)c2cc(F)cc(OC)c2)CC1" and report it.
5.04

###

Target: human α1G T-type channels (Homo sapiens, UniProt O43497)
Construct: expressed in transfected cells; host or cells: HEK 293
Assay: T-type calcium channel block, whole cell patch clamp in HEK cells (α1G)
Format: cell-based
Conditions: HEK cells, patch clamp, mainly non-inactivated protocol; values above 10 μM shown as 10 μM, below 0.30 μM shown as 0.30 μM; read-out: T-type Calcium Channel Block α1G IC50
Experimental: T-type calcium channel blocking activity was assayed in human embryonic kidney cells, HEK 293, stably transfected with the T-type calcium channel subunits. […] Standard patch-clamp techniques were employed to identify blockers of T-type currents. […] Data were analyzed using Clampfit (Axon Instruments) and SigmaPlot 4.0 (Jandel Scientific). […]
pIC50: −log10 of the molar value.
Overview of reported pIC50 across a group of molecules:

# example entries with known answers
COc1cc(C(=O)NCC2CCN(CCNC(=O)C3CCCC3)CC2)cc(C(F)(F)F)c1	6.42
COC1CCN(CC(=O)N2CCC(CNC(=O)c3cc(C(F)(F)F)cc(C(F)(F)F)c3)CC2)CC1	< 5.00
CC(C)(C)NC(=O)CN1CCC(CNC(=O)C2(c3ccccc3)CCCC2)CC1	> 6.52
CC1(NC(=O)CN2CCC(CNC(=O)c3cccc(OC(F)(F)F)c3)CC2)CCC1	> 6.52

Consider the molecule "O=C(NCC1CCN(CCNS(=O)(=O)C(F)(F)F)CC1)c1cc(C(F)(F)F)cc(C(F)(F)F)c1" . State its measured pIC50.
5.44

Output pIC50 of "CC(C)(NC(=O)CN1CCC(CNC(=O)c2cccc(Cl)c2)CC1)C(F)(F)F"
> 6.52

Given "Cc1cc(F)cc(C(=O)NCC2CCN(CC(=O)NC(C)C)CC2)c1" , respond with its pIC50.
< 5.00

Dear colleague, please send me the reported pIC50 for O=C(CC1CCN(CC(O)C(F)(F)F)CC1)Nc1cc(C(F)(F)F)cc(C(F)(F)F)c1 (stereo not shown) when you can.
6.14

Dear colleague, please send me the reported pIC50 for "COc1cc(F)cc(C(=O)NCC2CCN(CC(=O)N(C)C(C)(C)C(F)(F)F)CC2)c1" when you can.
> 6.52

Tell us which pIC50 value is on record for "O=C(NCC1CCN(CCNS(=O)(=O)C2CC2)CC1)c1ccc(OC(F)(F)F)cc1"
5.30

Tell me its pIC50 given "CC(C)(C)C(=O)NCCN1CCC(CNC(=O)c2cc(Cl)cc(C(F)(F)F)c2)CC1" as the entry.
> 6.52

###

target: human α1G T-type channels (Homo sapiens, UniProt O43497); construct: expressed in transfected cells; host or cells: HEK 293; experiment: T-type calcium channel block, whole cell patch clamp in HEK cells (α1G); format: cell-based; details: HEK cells, patch clamp, mainly non-inactivated protocol; values above 10 μM shown as 10 μM, below 0.30 μM shown as 0.30 μM; read-out: T-type Calcium Channel Block α1G IC50
pIC50: −log10 of the molar value.
experimental_readout: pIC50

O=C(CN1CCC(CNC(=O)c2cccc(F)c2)CC1)NC1CCCC1 [Compound 535]	5.44

Name the recorded pIC50 of the compound listed here: COc1cc(C(=O)NCC2CCN(CC(=O)NC(C)(C)C)CC2)cc(C(F)(F)F)c1 [Compound 379]
> 6.52

Answer with reported pIC50 of O=C(CC1CCN(C(=O)[C@H]2CCCN2)CC1)Nc1cc(C(F)(F)F)cc(C(F)(F)F)c1 [Compound 191]
< 5.00

Please look at this compound and report its pIC50: CC(C)(C(=O)NCCN1CCC(CNC(=O)c2cc(C(F)(F)F)cc(S(C)(=O)=O)c2)CC1)C(F)(F)F [Compound 587]
< 5.00

Report pIC50, nothing else, for this compound: CC(C)(C)C(O)CN1CCC(CC(=O)Nc2cc(C(F)(F)F)cc(C(F)(F)F)c2)CC1 (stereo not shown) [Compound 153]
> 6.52

Given COCC(C)(C)NC(=O)C(C)N1CCC(CNC(=O)c2cc(F)cc(Cl)c2)CC1 (stereo not shown) [Compound 551] , respond with its pIC50.
6.43

Supply pIC50 value. Item: CN(CC1CCN(CCNC(=O)NC(C)(C)C)CC1)C(=O)c1cc(F)cc(C(F)(F)F)c1 [Compound 411]
< 5.00

Tell me measured pIC50 for CC1(NC(=O)CN2CCC(CNC(=O)c3cccc(C(F)(F)F)c3)CC2)CCC1 [Compound 479] please.
> 6.52

###

target: human α1H T-type channels (Homo sapiens); construct: expressed in transfected cells; host or cells: HEK 293; assay: T-type calcium channel block, whole cell patch clamp in HEK cells (α1H); format: cell-based; settings: HEK cells, patch clamp, mainly non-inactivated protocol; values above 10 μM shown as 10 μM; read-out: T-type Calcium Channel Block α1H IC50
experimental_readout: IC50 (nM)
Write the answer as a number in nM, unit excluded.

Some solved entries appear below for comparison.
COc1cc(F)cc(C(=O)NCC2CCN(CCNS(=O)(=O)C3CC3)CC2)c1	1920
O=C(NCC1CCN(CCNS(=O)(=O)C2CC2)CC1)c1cc(F)cc(C(F)(F)F)c1	850
CC(C)NC(=O)CN1CCC(CNC(=O)c2cc(F)cc(C(F)(F)F)c2)CC1	750

Please supply the value of reported IC50 for the item "O=C(NCC1CCN(CC(=O)N2CC[C@H](C(F)(F)F)C2)CC1)c1cc(F)cc(C(F)(F)F)c1"
160

###

target: human α1G T-type channels (Homo sapiens); construct: expressed in transfected cells; host or cells: HEK 293; experiment: T-type calcium channel block, whole cell patch clamp in HEK cells (α1G); type: cell-based; conditions: HEK cells, patch clamp, mainly non-inactivated protocol; values above 10 μM shown as 10 μM, below 0.30 μM shown as 0.30 μM; read-out: T-type Calcium Channel Block α1G IC50
IC50 listing for selected compounds.

Consider the following illustrative entries.
O=C(NCC1CCN(CCNC(=O)C2(C(F)(F)F)CC2)CC1)c1cc(C(F)(F)F)cc(C(F)(F)F)c1 [Compound 342]	< 0.3 µM
CC(C)(C)C(=O)NCCN1CCC(CNC(=O)c2cccc(Cl)c2)CC1 [Compound 299]	1.21 µM
Cc1cc(F)cc(C(=O)NCC2CCN(CC(=O)N3CCC[C@@H]3C(F)(F)F)CC2)c1 [Compound 506]	5.36 µM
CCC1CCCCN1CC(=O)N1CCC(CNC(=O)c2cc(C(F)(F)F)cc(C(F)(F)F)c2)CC1 (stereo not shown) [Compound 243]	0.53 µM
CC(C)(C(=O)NCCN1CCC(CNC(=O)c2cc(F)cc(C(F)(F)F)c2)CC1)C(F)(F)F [Compound 339]	< 0.3 µM
CCC1CCCCN1CC(=O)N1CCC(CNC(=O)c2cc(F)cc(C(F)(F)F)c2)CC1 (stereo not shown) [Compound 269]	1.4 µM

Report measured IC50; entry is O=C(NCC1CCN(CCNC(=O)C2CCCC2)CC1)c1cc(F)cc(F)c1 [Compound 395]
> 10 µM

Answer with the recorded IC50 of CC(C)(NC(=O)CN1CCC(CNC(=O)c2cccc(OC(F)(F)F)c2)CC1)C(F)(F)F [Compound 462] only.
< 0.3 µM

Please give measured IC50 of the following entry: CC(C)(C)NCC(=O)N1CCC(CNC(=O)c2cc(C(F)(F)F)cc(C(F)(F)F)c2)CC1 [Compound 239]
< 0.3 µM

Please list IC50 recorded for the compound CC(C(=O)NC(C)(C)C(F)(F)F)N1CCC(CNC(=O)c2cc(F)cc(Cl)c2)CC1 (stereo not shown) [Compound 547]
< 0.3 µM

Give me measured IC50, please, for this compound: O=C(NCC1CCN(CCNC(=O)C2(C(F)(F)F)CC2)CC1)c1cccc(Br)c1 [Compound 501]
< 0.3 µM

Consider the compound O=C(NCC1CCN(CCNS(=O)(=O)C(F)(F)F)CC1)c1cccc(Br)c1 [Compound 330] and give its recorded IC50.
> 10 µM

Answer with the recorded IC50 of CCCNC(=O)CN1CCC(CNC(=O)c2cc(F)cc(C(F)(F)F)c2)CC1 [Compound 351] only.
1.72 µM
